# Tested on: mouse colon carcinoma (CT-26) cells
# assay remarks: Cytotoxicity (MTT) in the dark or upon exposure to ultrasound radiation
# Assay type: cell-based
# reported conditions: CT-26, dark; 4 h incubation, then 44 h; concentrations correspond to the platinum complex; 2880 min
recorded metric: IC50 (µM)
Output spec: scalar in µM, unitless text.

Data request: Fill in: IC50 of O=C1[O][Pt]2([NH][C@@H]3CCCC[C@H]3[NH]2)[O]C1=O is ___
Data returned: 20.4
